Tested on: A2780/C25
ASSAY_NAME: Cytotoxicity IC50 in A2780/C25 cell line, 1 hour drug exposure
Format: cell-based
MEASUREMENT_CONDITIONS: resistance factor = IC50 in A2780/C25 ÷ IC50 in A2780/WT
// values below are reported C25 Rfact
ENDPOINT_NAME: C25 Rfact

{"MOLECULE": "N#CCCC1CCCCC1=O.N#CCCC1CCCCC1=O.[Cl][Pt@SP1][Cl] (centres unmarked) [BNP3020]", "ASSAY_VALUE": 1.19}
{"MOLECULE": "[Cl][Pt-2]([Cl])([N+]#CC1CCC1)[N+]#CC1CCC1 [BNP3021]", "ASSAY_VALUE": 2.10}
{"MOLECULE": "N#CCCCc1ccccc1.N#CCCCc1ccccc1.[Cl][Pt@SP1][Cl] [BNP3029/c]", "ASSAY_VALUE": 1.24}
{"MOLECULE": "N#CCCCc1ccccc1.N#CCCCc1ccccc1.[Cl][Pt@SP1][Cl] [BNP3029/t]", "ASSAY_VALUE": 1.09}
{"MOLECULE": "CCCCOCCC#N.CCCCOCCC#N.[Cl][Pt@SP1][Cl] [BNP3022]", "ASSAY_VALUE": 0.88}
